Give GI50 for every item shown.
System: ACHN
Test: NCI tumour cell line growth inhibition, 48 h
Calls of active or inactive are those of the source. Cut-off read from the data, not from the text of the source: active = GI50 up to about 1.1 µM and inactive = higher.

**Query** Give me measured GI50, please, for this molecule: CC1(C)CC[C@]2(C(=O)O)CC[C@]3(C)C(=CC[C@@H]4[C@@]5(C)CC[C@H](OC6OC(C(=O)O)C(O)C(O)C6O)C(C)(C)[C@@H]5CC[C@]43C)[C@@H]2C1 (stereo partly drawn)
**Result** 16.1 µM (inactive)

**Query** Answer with the recorded GI50 for the molecule listed here: CC(=O)OCC1OC(Oc2cc(C)c(O)cc2C/C=C(\C)CC/C=C(\C)C[C@@H](C=C(C)C)OC(C)=O)C(O)C(OC(C)=O)C1OC(C)=O (stereo partly drawn)
**Result** 20 µM (inactive)

**Query** Hello, please tell me recorded GI50 for this one: Nc1ccc(SC23CC4CC(CC(C4)C2)C3)cc1
**Result** > 100 µM (inactive)

**Query** Recall and state the measured GI50 for O=C1C2C=CC(n3[nH]c(=O)n(Cc4ccccc4)c3=O)CC2C(=O)N1c1cccc(Cl)c1 (stereo not drawn) .
**Result** > 100 µM (inactive)

**Query** Report GI50, nothing else, for this molecule: CC1(C)CC(c2c[nH]c3ccccc23)=CC2=Nc3ccccc3C21O (stereo not drawn)
**Result** > 100 µM (inactive)

**Query** Provide only the value of recorded GI50 for COC(=O)C1CC2CCC1(O[Si](C(C)C)(C(C)C)C(C)C)C(O)C2 (stereo not drawn)
**Result** 22.8 µM (inactive)

**Query** Note GI50 for the molecule shown: c1ccc2c(c1)SC1=Nc3sc4ccccc4[n+]3CN12
**Result** 32.8 µM (inactive)

**Query** Given the molecule Cc1nn(C(=O)c2ccncc2)c2c1C(c1cccc([N+](=O)[O-])c1)SC(=N)N2 (stereo not drawn) , write its reported GI50.
**Result** > 10 µM (inactive)

**Query** Supply reported GI50 belonging to this molecule: CCCCCCCCOCC(O)COC (stereo not drawn)
**Result** > 100 µM (inactive)

**Query** Please supply the value of reported GI50 for the item O=S(=O)(N1CCCCN(S(=O)(=O)C(F)(F)F)CCCN(S(=O)(=O)C(F)(F)F)CCCCN(S(=O)(=O)C(F)(F)F)CCCN(S(=O)(=O)C(F)(F)F)CCCCN(S(=O)(=O)C(F)(F)F)CCCN(S(=O)(=O)C(F)(F)F)CCCCN(S(=O)(=O)C(F)(F)F)CCC1)C(F)(F)F
**Result** > 31.6 µM (inactive)

**Query** Report GI50, nothing else, for this molecule: O=C(N/N=C/c1ccccc1)c1cccc2nc3ccccc3nc12
**Result** > 100 µM (inactive)

**Query** Annotate the molecule CCOc1ccc(C2Oc3c(cccc3OC)C=C2[N+](=O)[O-])cc1OCC (stereo not drawn) with its measured GI50.
**Result** 3.71 µM (inactive)

**Query** Indicate the recorded GI50 value for this molecule: Cc1[nH]n(-c2ccccc2)c(=O)c1C(N(CCc1ccccc1)C1=NCC(C)S1)(C(F)(F)F)C(F)(F)F (stereo not drawn)
**Result** 16.2 µM (inactive)

**Query** Identify measured GI50 corresponding to C(=N\c1nc2cc3sc(/N=C/c4cccs4)nc3cc2s1)/c1cccs1
**Result** > 100 µM (inactive)

**Query** Specify measured GI50 for Oc1[nH]c(NCc2ccc(Cl)cc2)nc2ncnc1-2 .
**Result** > 100 µM (inactive)

**Query** Tell us which GI50 value is on record for COc1cccc(/C(CC(O)(C(F)(F)F)C(F)(F)F)=N\N(C)C)c1
**Result** > 100 µM (inactive)

**Query** Note GI50 for the molecule shown: CC(C)(Cl)C(Br)CC/C(=C/CCl)CBr.CC(C)(Cl)C(Br)CC/C(=C\CCl)CBr (stereo not drawn)
**Result** 2.77 µM (inactive)

**Query** Provide only the value of recorded GI50 for O=C1OC(=O)C23CSCC12C1C=CC3O1 (stereo not drawn)
**Result** > 100 µM (inactive)
